Source of measurements: the supplement of paper PMC10567573

B1: PI4K2A (parent)
chain: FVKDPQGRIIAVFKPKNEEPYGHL

Variants of: B1
Test description: protein stability index of a GFP-peptide fusion (GPS, HEK-293T) (PSI 1-6); higher = more stable;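 further: lentivirally expressed fusions sorted by FACS into six bins by GFP to DsRed ratio, PSI derived from sequencing read proportions per bin multiplied by bin number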
Measurement parameters: c terminus: a fixed tail appended
Parameter threshold = 2. Response is YES when protein stability index meets or exceeds it, else NO.

FVKDPSGRIIAVFKPKNEEPYGHL | NO
FVKDPQGRIIAVFKPKNEEAYGHL | YES
FVKDPQGRIIAVFKPKNEEPYGFL | NO

Q) Does protein stability index meet or surpass 2 for FVKDPQGRIIAVFKPKNEEPYSHL ?
A) YES

Q) Does protein stability index meet or surpass 2 for FVKDPQGRIIAVPKPKNEEPYGHL ?
A) YES

Q) Does protein stability index meet or surpass 2 for FVKDPQGRIIAVFKPKNETPYGHL ?
A) YES

Q) Does protein stability index meet or surpass 2 for FVKDPQGRIIAVFKPKSEEPYGHL ?
A) NO

Q) Does protein stability index meet or surpass 2 for FVKDPQGAIIAVFKPKNEEPYGHL ?
A) YES

Q) Does protein stability index meet or surpass 2 for FVKDPQIRIIAVFKPKNEEPYGHL ?
A) YES
